Origin of measurements: ChEMBL document CHEMBL1145940

assay: Inhibitory activity against neuronal nitric oxide synthase
Record form. Attribute: pKi. Fill in for each entry.
# pKi is unitless: minus log10 of the molar concentration; print number only

Give a short answer stating reported pKi for NCCc1ccc(NC[C@@H](N)CCC/N=C(\N)N[N+](=O)[O-])cc1 .
5.78

Read off the recorded pKi for N/C(=N\CCC[C@H](N)CNCc1cccnc1)N[N+](=O)[O-]
6.12

Using known records, supply pKi for [H]/N=C(/NCCC[C@H](N)C(=O)N[C@H]1CNC(C(N)=O)C1)N[N+](=O)[O-] (some centres undefined)
7.13

Return value of pKi for input NC(=O)[C@@H](CCC/N=C(/N)N[N+](=O)[O-])NC(=O)[C@H](N)Cc1ccccc1 , no commentary.
4.77
